Assay: Selectivity index, ratio of EC50 for human HEK cells to EC50 for wild type Trypanosoma brucei brucei Lister 427
Type: toxicity, cell-based, HEK293
Conditions: HEK cells, read-out: Ratio EC50
quantity name: selectivity ratio
In your answer, state the number alone without any accompanying words.

Ask: Find the recorded selectivity ratio belonging to O=C(c1ccc(C[P+](c2cccc3ccccc23)(c2cccc3ccccc23)c2cccc3ccccc23)cc1)c1ccc(C[P+](c2cccc3ccccc23)(c2cccc3ccccc23)c2cccc3ccccc23)cc1.[Br-].[Br-] and report it.
Reply: 502

Ask: Find the recorded selectivity ratio belonging to Cc1ccc([P+](Cc2ccc(CCc3ccc(C[P+](c4ccc(C)cc4)(c4ccc(C)cc4)c4ccc(C)cc4)cc3)cc2)(c2ccc(C)cc2)c2ccc(C)cc2)cc1.[Br-].[Br-] and report it.
Reply: 213

Ask: Find the recorded selectivity ratio belonging to Cc1cccc([P+](Cc2ccc(Oc3ccc(C[P+](c4cccc(C)c4)(c4cccc(C)c4)c4cccc(C)c4)cc3)cc2)(c2cccc(C)c2)c2cccc(C)c2)c1.[Br-].[Br-] and report it.
Reply: 792

Value source: ChEMBL document CHEMBL2040794
